Source of measurements: ChEMBL document CHEMBL5113398

- System: CCRF-CEM
- test_details: Anticancer activity against human CCRF-CEM cells assessed as cell growth inhibition incubated for 48 hrs by SRB assay
- Type: functional
endpoint_label: GI50 (nM)

| smi | result_value |
| --- | --- |
| COc1cc2cc(Oc3ccc(NC(=O)Nc4ccc(F)c(C(F)(F)F)c4)cc3)c(C)nc2cc1OCCN1CCOCC1 | 1720 |
| CNC(=O)c1cc(Oc2ccc(NC(=O)Nc3ccc(Cl)c(C(F)(F)F)c3)cc2)ccn1 | 2000 |
| COc1cc2cc(Oc3ccc(NC(=O)Nc4ccc(Cl)c(C(F)(F)F)c4)cc3)c(C)nc2cc1OCCN1CCOCC1 | 1450 |
| COc1cc2cc(Oc3ccc(NC(=O)Nc4cc(C(F)(F)F)cc(C(F)(F)F)c4)cc3)c(C)nc2cc1OCCN1CCOCC1 | 1410 |

====

Property: GI50; scope: individual compounds
- System: UO-31
- test_details: Anticancer activity against human UO-31 cells assessed as cell growth inhibition incubated for 48 hrs by SRB assay
- Type: functional

| compound | GI50 [µM] |
| --- | --- |
| COc1cc2cc(Oc3ccc(NC(=O)Nc4ccc(Cl)c(C(F)(F)F)c4)cc3)c(C)nc2cc1OCCN1CCOCC1 | 1.4 |
| COc1cc2cc(Oc3ccc(NC(=O)Nc4ccc(F)c(C(F)(F)F)c4)cc3)c(C)nc2cc1OCCN1CCOCC1 | 1.71 |
| COc1cc2cc(Oc3ccc(NC(=O)Nc4cc(C(F)(F)F)cc(C(F)(F)F)c4)cc3)c(C)nc2cc1OCCN1CCOCC1 | 1.01 |
| CNC(=O)c1cc(Oc2ccc(NC(=O)Nc3ccc(Cl)c(C(F)(F)F)c3)cc2)ccn1 [SORAFENIB] | 2.51 |

====

Property: Papp A→B; scope: individual molecules
- test_details: Apparent permeability of the compound from apical to basolateral side in human Caco-2 cells at pH 6.5 to 7.4
- Format: ADME, cell-based
- condition_info: Caco-2, pH 6.5
endpoint_label: Papp A→B (×10⁻⁶ cm/s)

| molecule | result_value |
| --- | --- |
| CNC(=O)c1cc(Oc2ccc(NC(=O)Nc3ccc(Cl)c(C(F)(F)F)c3)cc2)ccn1 | 16.4 |
| CC(CCc1ccccc1)NCC(O)c1ccc(O)c(C(N)=O)c1 (centres undefined) | 72 |
| COc1cc2cc(Oc3ccc(NC(=O)Nc4cc(C(F)(F)F)cc(C(F)(F)F)c4)cc3)c(C)nc2cc1OCCN1CCOCC1 | 0.4 |
| COc1cc2c(c(OC)c1OC)-c1ccc(OC)c(=O)cc1[C@@H](NC(C)=O)CC2 | 0.3 |

====

- test_details: Apparent permeability across apical to basolateral side in human Caco-2 cells assessed as drug recovery at pH 6.5 to 7.4
- Assay type: ADME, cell-based
- condition_info: Caco-2, pH 6.5, read-out: Drug recovery
Property: recovery; scope: individual molecules

| molecule | units_symbol | recovery |
| --- | --- | --- |
| CNC(=C[N+](=O)[O-])NCCSCc1ccc(CN(C)C)o1 | % | 82 |
| COc1cc2cc(Oc3ccc(NC(=O)Nc4cc(C(F)(F)F)cc(C(F)(F)F)c4)cc3)c(C)nc2cc1OCCN1CCOCC1 | % | 74 |
| CC(CCc1ccccc1)NCC(O)c1ccc(O)c(C(N)=O)c1 (centres undefined) | % | 91 |
| COc1cc2c(c(OC)c1OC)-c1ccc(OC)c(=O)cc1[C@@H](NC(C)=O)CC2 | % | 75.5 |
